- System: E. coli ATCC 25922
- procedure-summary: MIC, CLSI broth microdilution (Table 2)
- Format: cell-based
- reported-conditions: Escherichia coli, ATCC25922, read-out: MIC E. coli ATCC 25922
Where a name gives a salt, the structure may show the parent alone.
Please provide measured MIC for the entries that follow.

Requested read-out: MIC. Entry: Cc1c(-c2ccc(N)nc2)ccn2c(=O)c(C(=O)O)cc(C3CC3)c12 [Example 21 K salt]
0.016 to 0.032 µg/mL

Requested read-out: MIC. Entry: Cc1c(-c2cc(F)c(N)cc2F)ccn2c(=O)c(C(=O)O)cc(C3CC3)c12 [Example 28 K salt]
0.032 to 0.064 µg/mL

Requested read-out: MIC. Entry: Cc1c(-c2cccc(N)c2)ccn2c(=O)c(C(=O)O)cc(C3CC3)c12 [Example 3 K salt]
0.064 to 0.125 µg/mL

----------
Please provide measured MIC for the entries that follow.
- Test system: H. influenzae ATCC 49247
- procedure-summary: MIC, CLSI broth microdilution (Table 2)
- Format: cell-based
- reported-conditions: Haemophilus influenzae, ATCC49247; Gram negative; MHB, 37° C., 16-20 hours; read-out: MIC H. influenzae ATCC 49247
Counter-ions that a name gives are not always drawn.

Requested read-out: MIC. Entry: Cc1c(-c2cc(F)c(N)cc2F)c(F)cn2c(=O)c(C(=O)O)cc(C3CC3)c12 [Example 38 K salt]
≤ 4 ng/mL

Requested read-out: MIC. Entry: CNc1ccc(-c2ccn3c(=O)c(C(=O)O)cc(C4CC4)c3c2C)cc1 [Example 15 K salt]
16 to 32 ng/mL

Requested read-out: MIC. Entry: Cc1c(N2CC[C@H](N)C2)c(F)cn2c(=O)c(C(=O)O)cc(C3CC3)c12 [Example 26 K salt]
≤ 4 ng/mL

----------
- System: S. pneumonia ATCC 49619
- procedure-summary: MIC, CLSI broth microdilution (Table 1)
- Type: cell-based
- reported-conditions: Streptococcus pneumoniae, ATCC49619; Gram positive; MHB, 37° C., 16-20 hours; read-out: MIC S. pneumonia ATCC 49619
Counter-ions that a name gives are not always drawn.
Please provide measured MIC for the entries that follow.
Reply with just the number (in µg/mL).

Requested read-out: MIC. Entry: Cc1c(-c2ccc3[nH]ccc3c2)ccn2c(=O)c(C(=O)O)cc(C3CC3)c12 [Example 22 K salt]
0.125

Requested read-out: MIC. Entry: Cc1c(-c2cc(F)c(N)cc2F)c(F)cn2c(=O)c(C(=O)O)cc(C3CC3)c12 [Example 38 K salt]
0.016

Requested read-out: MIC. Entry: Cc1c(-c2cc[nH]c2)ccn2c(=O)c(C(=O)O)cc(C3CC3)c12 [Example 43 K salt]
0.5

Requested read-out: MIC. Entry: Cc1c(-c2ccc(F)cc2)ccn2c(=O)c(C(=O)O)cc(C3CC3)c12 [Example 44 K salt]
0.25

Requested read-out: MIC. Entry: Cc1c(-c2ccc(C(N)=O)cc2)ccn2c(=O)c(C(=O)O)cc(C3CC3)c12 [Example 36 K salt]
0.064

Requested read-out: MIC. Entry: COc1ccc(-c2ccn3c(=O)c(C(=O)O)cc(C4CC4)c3c2C)cc1 [Example 47 K salt]
0.25

Requested read-out: MIC. Entry: Cc1c(-c2ccc(N)cc2)ccn2c(=O)c(C(=O)O)cc(C3CC3)c12 [Example 18 K salt]
0.064

Requested read-out: MIC. Entry: Cc1c(N2CC[C@H](N)C2)ccn2c(=O)c(C(=O)O)cc(C3CC3)c12 [Example 27 K salt]
2

Requested read-out: MIC. Entry: Cc1c(N2CCNCC2)ccn2c(=O)c(C(=O)O)cc(C3CC3)c12 [Example 34 K salt]
2

Requested read-out: MIC. Entry: Cc1c(-c2ccc(NC(N)=O)cc2)ccn2c(=O)c(C(=O)O)cc(C3CC3)c12 [Example 24 K salt]
0.032

Requested read-out: MIC. Entry: Cc1c(-c2ccc(N(C)C)cc2)ccn2c(=O)c(C(=O)O)cc(C3CC3)c12 [Example 25 K salt]
0.25

Requested read-out: MIC. Entry: Cc1ccc(-c2ccn3c(=O)c(C(=O)O)cc(C4CC4)c3c2C)cc1 [Example 33 K salt]
0.25

Requested read-out: MIC. Entry: Cc1c(N2CCC[C@H](N)C2)ccn2c(=O)c(C(=O)O)cc(C3CC3)c12 [Example 35 K salt]
0.032

Requested read-out: MIC. Entry: Cc1c(N2CC[C@H](N)C2)c(F)cn2c(=O)c(C(=O)O)cc(C3CC3)c12 [Example 26 K salt]
0.064

Requested read-out: MIC. Entry: COc1c(N2C[C@@H]3CCCN[C@@H]3C2)c(F)cc2c(=O)c(C(=O)O)cn(C3CC3)c12 [Moxyfloxacin, reference compound]
0.125

Requested read-out: MIC. Entry: Cc1c(-c2cccc(F)c2)ccn2c(=O)c(C(=O)O)cc(C3CC3)c12 [Example 10 K salt]
0.125

Requested read-out: MIC. Entry: Cc1c(-c2cccnc2)ccn2c(=O)c(C(=O)O)cc(C3CC3)c12 [Example 17 K salt]
0.125

Requested read-out: MIC. Entry: Cc1c(-c2cccc(N)c2)c(F)cn2c(=O)c(C(=O)O)cc(C3CC3)c12 [Example 4 K salt]
0.125
